# EXPERIMENT: qHTS assay for small molecule agonists of the antioxidant response element (ARE) signaling pathway (AID 743202); further: potency means the concentration at half of the fitted maximal effect
# CONDITION_NOTES: HepG2 ARE-bla reporter, beta-lactamase FRET, 16 h; series mostly up to 73.3 µM
Inconclusive results are not listed. Calls of active or inactive are those of the source. The call rests on the fitted dose curve; in most records, active means well fitted activation curve with a large enough effect in the signal ratio in the repeat runs (not every such curve was filed as active); inconclusive means weak or mixed curves, or effect the other way; inactive means no such curve, though single readings can be large or run the other way; the % refers to the signal ratio.
PARAMETER_MEASURED: Potency

Please review the entries below; each comes with its answer.
In [3]: df
Out[3]:
                                   molecule  observed_value
0     CC(CC=O)c1ccccc1 (stereo unspecified)        inactive
1             Nc1ccc(S(=O)(=O)Nc2ccccc2)cc1        inactive
2                   CCOC(=O)Cc1cccc2ccccc12        inactive
3  CNC(=O)CN(CCN(CCN(CC(=O)[O-])CC(=O)NC)CC(=O)[O-])CC(=O)[O-].O.[Gd+3]        inactive
4                CN(C)CCN(Cc1ccsc1)c1ccccn1        inactive

[Q] Looking for the measured Potency of Cc1cccc(C)c1OCC(=O)N[C@@H](Cc1ccccc1)[C@@H](O)C[C@H](Cc1ccccc1)NC(=O)[C@H](C(C)C)N1CCCNC1=O , can you help?
[A] 29.8 µM (active)
